# Measured target: SCD5 (Homo sapiens, UniProt Q86SK9)
# Construct: host or cells: S. cerevisiae ole1Δ strain (W303 pdr1Δ pdr3Δ background), plasmid pRS316 with TDH3 promoter and CYC1 terminator
# Protocol: Growth inhibition of humanized yeast strain expressing SCD5 as sole desaturase
# Format: cell-based
# Conditions used: humanized yeast strain, 40 h
# Experimental: Strain oleΔ (yeast ole1 deletion mutant) was constructed by deleting OLE1 with NAT-MX6 in BY4741, amplifying the deletion cassette from the genomic DNA of the resulting strain with primers flanking the ORF by 1000 bp upstream and downstream, transforming the resulting deletion cassette into W303 pdr1Δ pdr3Δ, and plating transformants on YPD media containing G418 (200 μg/mL) and nourseothricin ([…]) with 0.01% TWEEN®-20 and 0.5 mM oleic and palmitoleic acids. […]
Readout label: IC50

[[record]]
molecule = "COC(=O)N1CCC(c2noc(-c3ccc(N4CCOCC4)cc3)n2)CC1"
measured_target = "SCD5 (Homo sapiens, UniProt Q86SK9)"
endpoint_value = "> 45 µM"

[[record]]
molecule = "CC(C)(C)OC(=O)N1CC=C(c2cnc(-c3ccc4cnn(C5COC5)c4c3)nc2)CC1"
measured_target = "SCD5 (Homo sapiens, UniProt Q86SK9)"
endpoint_value = "> 45 µM"

[[record]]
molecule = "CC(C)(C)OC(=O)N1C[C@@H]2[C@H](C1)[C@H]2C(=O)NCc1ccc2[nH]ncc2c1"
measured_target = "SCD5 (Homo sapiens, UniProt Q86SK9)"
endpoint_value = "> 45 µM"

[[record]]
molecule = "CC(C)C(=O)N1CCC(c2noc(N3CCc4c(cnn4C4COC4)C3)n2)CC1"
measured_target = "SCD5 (Homo sapiens, UniProt Q86SK9)"
endpoint_value = "> 45 µM"

[[record]]
molecule = "O=C(C1CC1)N1CCN(c2noc(-c3ccnc(Cl)c3)n2)CC1"
measured_target = "SCD5 (Homo sapiens, UniProt Q86SK9)"
endpoint_value = "> 45 µM"

[[record]]
molecule = "CC(C)C(=O)N1CCN(c2noc(-c3ccnc(NC4COC4)c3)n2)CC1"
measured_target = "SCD5 (Homo sapiens, UniProt Q86SK9)"
endpoint_value = "> 45 µM"

[[record]]
molecule = "COC(=O)N1CCN(c2nc(-c3ccc4cnn(C5CNC5)c4c3)no2)CC1"
measured_target = "SCD5 (Homo sapiens, UniProt Q86SK9)"
endpoint_value = "13.8 µM"

[[record]]
molecule = "CC1(C)CC1C(=O)N1CCC(c2noc(-c3ccc4cnn(C5COC5)c4c3)n2)CC1 (stereo not drawn)"
measured_target = "SCD5 (Homo sapiens, UniProt Q86SK9)"
endpoint_value = "0.01 µM"

[[record]]
molecule = "CC(C)n1ncc2ccc(-c3nc(N4CCn5c(Cl)cnc5C4)no3)cc21"
measured_target = "SCD5 (Homo sapiens, UniProt Q86SK9)"
endpoint_value = "0.067 µM"


---

Each entry below lists one item and its recorded SCD5 % Max Inhibition value.
# Measured target: SCD5 (Homo sapiens)
# Construct: host or cells: S. cerevisiae ole1Δ strain (W303 pdr1Δ pdr3Δ background), plasmid pRS316 with TDH3 promoter and CYC1 terminator
# Protocol: Growth inhibition of humanized yeast strain expressing SCD5 as sole desaturase
# Type: cell-based
# Conditions used: humanized yeast strain expressing SCD5
Readout label: SCD5 % Max Inhibition

[[record]]
compound = "COc1ccc(-c2nccc(C3CCN(C(=O)CNC(=O)c4ccccc4)CC3)n2)cc1OC"
readout_label = "SCD5 % Max Inhibition"
endpoint_value = "93.18%"

[[record]]
compound = "COc1ccc(-c2noc(C3CCN(C(=O)CNC(c4ccccc4)C(F)(F)F)CC3)n2)cc1OC (stereo not drawn)"
readout_label = "SCD5 % Max Inhibition"
endpoint_value = "5.37%"

[[record]]
compound = "CCc1c2ccc(-c3noc(C4CCN(C(=O)CNC(=O)c5ccccc5)CC4)n3)cc2nn1C"
readout_label = "SCD5 % Max Inhibition"
endpoint_value = "74.1%"

[[record]]
compound = "O=C(C1CC(=O)N(c2cccc(Cl)c2)C1)N1CCC(c2nc(-c3cnn(C4COC4)c3)no2)CC1 (stereo not drawn)"
readout_label = "SCD5 % Max Inhibition"
endpoint_value = "65.9%"

[[record]]
compound = "Cn1c(=O)n(C)c2cc(-c3noc(C4CCN(C(=O)[C@H]5CC(=O)N(c6ccccn6)C5)CC4)n3)ccc21"
readout_label = "SCD5 % Max Inhibition"
endpoint_value = "72.11%"

[[record]]
compound = "COc1ccc(-c2noc(C3CCN(C(=O)CNC(=O)c4ccccc4)CC3)n2)cc1OC(C)C"
readout_label = "SCD5 % Max Inhibition"
endpoint_value = "67.0%"

[[record]]
compound = "COc1ccc(-c2noc(C3CCN(C(=O)N4CCCCC4)CC3)n2)cc1OC"
readout_label = "SCD5 % Max Inhibition"
endpoint_value = "47.60%"

[[record]]
compound = "Cc1nn(C)c2cc(-c3noc(N4CCN(C(=O)c5ccccc5Cl)CC4)n3)ccc12"
readout_label = "SCD5 % Max Inhibition"
endpoint_value = "10.38%"

[[record]]
compound = "Cc1nn(C)c2cc(-c3noc(C4CCN(C(=O)C5CC(=O)N(c6ccc(F)cn6)C5)CC4)n3)ccc12 (stereo not drawn)"
readout_label = "SCD5 % Max Inhibition"
endpoint_value = "78.05%"


---

# Measured target: SCD5 (Homo sapiens)
# Construct: host or cells: S. cerevisiae ole1Δ strain (W303 pdr1Δ pdr3Δ background), plasmid pRS316 with TDH3 promoter and CYC1 terminator
# Protocol: Growth inhibition of humanized yeast strain expressing SCD5 as sole desaturase
# Type: cell-based
# Conditions used: humanized yeast strain expressing SCD5
As shown below, each of these molecules has a reported SCD5 % Max Inhibition value.
Readout label: SCD5 % Max Inhibition (%)

[[record]]
molecule = "C[C@H]1CN(c2noc(C3CCN(C(=O)C4CC(=O)N(c5cccc(Cl)c5)C4)CC3)n2)C[C@H](C)O1 (stereo partly drawn)"
readout_label = "SCD5 % Max Inhibition"
endpoint_value = 68.7

[[record]]
molecule = "CCOc1ccc(-c2noc(C3CCN(C(=O)C4CN(c5ccccc5)C(=O)CO4)CC3)n2)cc1OC (stereo not drawn)"
readout_label = "SCD5 % Max Inhibition"
endpoint_value = 87.47

[[record]]
molecule = "Cc1nn(C)c2cc(-c3noc(C4CCN(C(=O)C5CC(=O)N(CC6COC6)C5)CC4)n3)ccc12 (stereo not drawn)"
readout_label = "SCD5 % Max Inhibition"
endpoint_value = 64.50

[[record]]
molecule = "CCOc1ncc(-c2noc(C3CCN(C(=O)C4CC(=O)N(c5ccccc5)C4)CC3)n2)cc1OC (stereo not drawn)"
readout_label = "SCD5 % Max Inhibition"
endpoint_value = 99.82

[[record]]
molecule = "CC(C)c1ccc(C(=O)N2CCC(c3noc(-c4cccc(F)c4)n3)CC2)cc1"
readout_label = "SCD5 % Max Inhibition"
endpoint_value = "−1.01"

[[record]]
molecule = "Cc1nn(C)c2cc(-c3noc(C4CCN(C(=O)C5CC(=O)N(c6ccccn6)C5)CC4)n3)ccc12 (stereo not drawn)"
readout_label = "SCD5 % Max Inhibition"
endpoint_value = 9.78


---

# Measured target: SCD5 (Homo sapiens)
# Construct: host or cells: S. cerevisiae ole1Δ strain (W303 pdr1Δ pdr3Δ background), plasmid pRS316 with TDH3 promoter and CYC1 terminator
# Sequence (Q86SK9 1-330): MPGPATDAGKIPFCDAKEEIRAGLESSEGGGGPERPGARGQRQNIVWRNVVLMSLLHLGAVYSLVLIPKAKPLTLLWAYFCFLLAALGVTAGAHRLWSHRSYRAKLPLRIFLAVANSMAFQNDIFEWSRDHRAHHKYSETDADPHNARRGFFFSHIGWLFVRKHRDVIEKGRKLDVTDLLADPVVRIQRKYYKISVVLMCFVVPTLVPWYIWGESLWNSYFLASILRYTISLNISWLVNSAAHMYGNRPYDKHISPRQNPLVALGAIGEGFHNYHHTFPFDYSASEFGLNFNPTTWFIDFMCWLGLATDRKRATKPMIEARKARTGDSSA
# Protocol: Growth inhibition of humanized yeast strain expressing SCD5 as sole desaturase
# Type: cell-based
# Conditions used: humanized yeast strain, 40 h
# Description: Strain oleΔ (yeast ole1 deletion mutant) was constructed by deleting OLE1 with NAT-MX6 in BY4741, amplifying the deletion cassette from the genomic DNA of the resulting strain with primers flanking the ORF by 1000 bp upstream and downstream, transforming the resulting deletion cassette into W303 pdr1Δ pdr3Δ, and plating transformants on YPD media containing G418 (200 μg/mL) and nourseothricin ([…]) with 0.01% TWEEN®-20 and 0.5 mM oleic and palmitoleic acids. […]
pIC50: −log10 of the molar value.
Readout label: pIC50

[[record]]
compound = "CC(C)n1cc2c(n1)CN(c1noc(C3CCN(C(=O)OC(C)(C)C)CC3)n1)CC2 [Compound 826]"
readout_label = "pIC50"
bound_type = "="
endpoint_value = 5.70

[[record]]
compound = "CC(C)c1nccn2cc(-c3nc(C4CCN(C(=O)OC(C)(C)C)CC4)no3)cc12 [Compound 901]"
readout_label = "pIC50"
bound_type = "<"
endpoint_value = 4.35

[[record]]
compound = "CC(=O)N1CC(n2ncc3ccc(-c4nc(C5CCN(C(=O)OC(C)(C)C)CC5)no4)cc32)C1 [Compound 861]"
readout_label = "pIC50"
bound_type = "="
endpoint_value = 8.00

[[record]]
compound = "CC(C)(C)OC(=O)N1CCC(c2noc(-c3ccc4cnn(C5CS(=O)(=O)C5)c4c3)n2)CC1 [Compound 990]"
readout_label = "pIC50"
bound_type = "="
endpoint_value = 8.00

[[record]]
compound = "CC(C)(C)OC(=O)N1CCC(c2nc(-c3cccc(C4CCCOC4)c3)no2)CC1 (stereo not drawn) [Compound 824]"
readout_label = "pIC50"
bound_type = "="
endpoint_value = 6.03

[[record]]
compound = "CC(C)(C)OC(=O)N1CCN(c2nnc(-c3ccc4cnn(C5COC5)c4c3)o2)CC1 [Compound 976]"
readout_label = "pIC50"
bound_type = "="
endpoint_value = 5.27

[[record]]
compound = "COC(=O)N1CCC(c2nnc(-c3ccc4cnn(C(C)C)c4c3)o2)CC1 [Compound 852]"
readout_label = "pIC50"
bound_type = "="
endpoint_value = 5.27

[[record]]
compound = "O=C(C1CC2(CC2)C1)N1CCN(c2nnc(-c3ccc4cnn(C5COC5)c4c3)o2)CC1 [Compound 993]"
readout_label = "pIC50"
bound_type = "="
endpoint_value = 5.42

[[record]]
compound = "CC(C)(C)OC(=O)N1CCC(c2nc(-c3ccc4cn[nH]c4c3)no2)CC1 [Compound 912]"
readout_label = "pIC50"
bound_type = "="
endpoint_value = 5.70

[[record]]
compound = "CC(C)(C)OC(=O)N1CCC(c2nc(-c3ccc4cnn([C@@H]5CCOC5)c4c3)no2)CC1 [Compound 792]"
readout_label = "pIC50"
bound_type = "="
endpoint_value = 8.00

[[record]]
compound = "O=C(CC1CC1)N1CCC(c2noc(-c3ccc4cnn(C5COC5)c4c3)n2)CC1 [Compound 894]"
readout_label = "pIC50"
bound_type = "="
endpoint_value = 7.15

[[record]]
compound = "CC(C)(C)OC(=O)N1CCC(c2cnc(-c3ccc4cnn(C5COC5)c4c3)nc2)CC1 [Compound 985]"
readout_label = "pIC50"
bound_type = "="
endpoint_value = 5.59

[[record]]
compound = "C[C@H]1C[C@@H](c2noc(-c3ccc4cnn(C5COC5)c4c3)n2)CCN1C(=O)OC(C)(C)C [Compound 1025]"
readout_label = "pIC50"
bound_type = "="
endpoint_value = 8.00

[[record]]
compound = "CC(C)(C)OC(=O)N1CCC(c2noc(-c3cc(F)cc(N4CCOCC4)c3)n2)CC1 [Compound 1086]"
readout_label = "pIC50"
bound_type = "="
endpoint_value = 7.72

[[record]]
compound = "CC(C)Nc1cc(-c2nc(N3CCN(C(=O)OC(C)(C)C)CC3)no2)ccn1 [Compound 809]"
readout_label = "pIC50"
bound_type = "="
endpoint_value = 6.91

[[record]]
compound = "O=C(C1CCC1)N1CCC(c2cc(-c3cc4c(cn3)cnn4C3COC3)on2)CC1 [Compound 1109]"
readout_label = "pIC50"
bound_type = "="
endpoint_value = 7.30

[[record]]
compound = "CC1(C(=O)N2CCC(c3noc(-c4ccnc(C5CCOC5)c4)n3)CC2)CC1 (stereo not drawn) [Compound 1178]"
readout_label = "pIC50"
bound_type = "="
endpoint_value = 6.20

[[record]]
compound = "CCC(=O)N1CCN(c2noc(-c3ccnc(NC4COC4)c3)n2)CC1 [Compound 978]"
readout_label = "pIC50"
bound_type = "<"
endpoint_value = 4.35

[[record]]
compound = "COC(=O)N1CCC(c2noc(-c3ccnc(C4CCCO4)c3)n2)CC1 (stereo not drawn) [Compound 973]"
readout_label = "pIC50"
bound_type = "<"
endpoint_value = 4.35

[[record]]
compound = "CC(C)(C)OC(=O)N1CCN(c2nc(-c3ccc4cnn(C5CNC5)c4c3)no2)CC1 [Compound 910]"
readout_label = "pIC50"
bound_type = "="
endpoint_value = 8.00

[[record]]
compound = "CC(C)C(=O)N1CCC(c2noc(-c3ccccc3N3CCOCC3)n2)CC1 [Compound 1167]"
readout_label = "pIC50"
bound_type = "<"
endpoint_value = 4.35

